Assay: chemical genetic growth profiling, strain panel (AID 1159580);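 further: tested at 20 µM; growth read once vehicle control cultures reached saturation at 30 °C; 1 = growth at the plate median or of vehicle wells; lower values mean less growth of the strain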
Conditions: S. cerevisiae deletion strains, growth OD, locus YOR136W, strain idh2
About 2,000 (36%) of roughly 5,500 compounds were called active. Not shown: some 18% with an inconclusive outcome. No stated cut-off is given here; in the data, active means normalized growth mostly below about 0.91 (no sharp cut-off); inconclusive means no clear call, values can overlap the other calls; inactive means mostly above about 0.92. Some of the results follow.
Bench note: report the call from 1 (active), 0 (inactive)

Consider the worked cases shown below.
C=CC(C1=CC(=O)C(OC)=CC1=O)c1ccccc1 (stereo unspecified) | 0
Nc1ncnc2c1ncn2[C@@H]1O[C@H](CO)[C@@H](O)[C@H]1O | 0
C=CC(C1=CC(=O)C(OC)=CC1=O)c1ccc(O)cc1 (stereo unspecified) | 0
C=C[C@@H](C1=CC(=O)C(OC)=C(OC)C1=O)c1ccccc1 | 1
C=CC(C1=CC(=O)C=CC1=O)c1ccccc1 (stereo unspecified) | 0

State the result this test recorded for C=CC(C1=CC(=O)C(OC)=CC1=O)c1ccc(OC)cc1 (stereo unspecified) .
1

====

# key: entry, value: normalized growth
Experiment: chemical genetic growth profiling, strain panel (AID 1159580)
Settings: S. cerevisiae deletion strains, growth OD, locus YFR003C, strain YPI1, hits give low values
The whole screen tested about 5,500 compounds, of which about 2,000 (36%) were called active. Roughly 18% stayed inconclusive and do not appear here. This is one part of the list.
Lab note: record just the number, no unit beside it.

O=S(=O)(N/N=C\c1ccc(Cl)cc1)c1ccc(-c2ccccn2)s1 | 0.976
CCCc1c(C(=O)NNc2cccc(Cl)c2)cnn1-c1ccccc1 | 0.987
CC(=O)c1sc(SCCS(=O)(=O)c2ccc(C)cc2)c2c1CC(C)(C)CC2=O | 0.97

Sure, the documented normalized growth for Cc1ccc(S(=O)(=O)CCSC2=CC(=O)CC(C)(C)S2)cc1 is 0.997

Looking up NC(=Nc1ccc(F)cc1)SCc1c(Cl)cccc1Cl , I see its normalized growth listed as 0.99

Notebook: COc1ccc(C(=O)CSC2=NCCc3ccccc32)cc1 , normalized growth read as 0.979

Briefly, normalized growth measured for O=C(NCCSCc1cccc(C(F)(F)F)c1)c1ccc(Cl)cc1 : 0.964

Value of measured normalized growth for the entry Cc1nn(Cc2ccc(C(=O)Sc3ccc(C(F)(F)F)cn3)o2)c(C)c1Br : 0.968

====

Assay: chemical genetic growth profiling, strain panel (AID 1159580)
Conditions: S. cerevisiae deletion strains, growth OD, locus YOR265W, strain rbl2, hits give low values
Out of some 5,500 compounds screened, about 2,000 (36%) were called active. Another 18% or so got no clear call; they are omitted. The list shows a part of the results.
value type: normalized growth
Number only, no unit.

Some molecules with known normalized growth results, for comparison:
CC(C)(C)NCC(O)c1ccccc1Cl (stereo not given) | 0.99
O=C1C=CC2=C3c4cc(O)c(O)cc4C[C@@]3(O)COC2=C1 | 0.986
C=C(C)C1CC=C(CO)CC1 (stereo not given) | 0.968
CCCCC(CC)CN1CN(CC(CC)CCCC)CC(C)(N)C1 (stereo not given) | 0.0536

normalized growth for O=C(O)C1=CCNCC1 is 1.01

====

Assay: chemical genetic growth profiling, strain panel (AID 1159580)
Settings: S. cerevisiae deletion strains, growth OD, locus YJR043C, strain POL32
Hit rate of the full screen: of about 5,500 compounds, about 2,000 (36%) were called active. Inconclusive results (about 18%) are left out. Rule as the data show it: active = normalized growth mostly below about 0.91 (no sharp cut-off); inconclusive = no clear call, values can overlap the other calls; inactive = mostly above about 0.92. This is one part of the list.
Choose the fitting class; nothing outside yes = active, no = inactive is accepted.

O=C(NC(=S)NCc1ccncc1)c1ccccc1 | no
Nc1ncn([C@@H]2O[C@H](CO)[C@@H](O)[C@H]2O)c(=O)n1 | no
CCOC(=O)N/N=C\c1cccs1 | no
O=C(N/N=C\c1cccs1)c1ccccc1CO | no
Nc1ncnc2c1ncn2C1C[C@H](O)[C@@H](CO)O1 (stereo not given in full) | no

For O=C(O)/C=C/C=C/c1ccccc1 , what call appears in the results of this test?
no

# outcome recorded in this test, key = CC(C)N(C(=O)SCC(Cl)=C(Cl)Cl)C(C)C
no

What did the test return for Nc1ccc(S(=O)(=O)Nc2ccccn2)cc1 ?
no

State the result this test recorded for O=C(NCCSCc1ccco1)Nc1cc(Cl)cc(Cl)c1 .
no

How did this test come out for O=C(NCCSCc1ccc(Cl)cc1)c1ccc(Cl)cc1 ?
no

Can you look up the reported call for NC(=S)N/N=C\c1ccccc1 for me?
no

====

Test: chemical genetic growth profiling, strain panel (AID 1159580)
Settings: S. cerevisiae deletion strains, growth OD, locus YOL147C, strain pex11, hits give low values
Among all 5,500 compounds or so, about 2,000 (36%) were called active. Not shown: some 18% with an inconclusive outcome. Some of the results follow.
The compounds listed here are annotated with their normalized growth.
I only need the number, thanks.

Cc1ccc2cc3c(ccc4ccccc43)c3c2c1CC3 | 0.896
C=C(C)[C@H]1CC=C(C(=O)O)CC1 | 0.976
CC(=O)Nc1ccc(S(=O)(=O)Nc2ccc([N+](=O)[O-])cc2)cc1 | 0.996
c1ccc2c(c1)cc1ccc3cccc4ccc2c1c34 | 0.992
CS(=O)(=O)CCCCN=C=S | 0.827

The reported normalized growth of the compound NCCNC(=O)c1ccc(Cl)cc1 was 0.985

Form field normalized growth, entry CCC(Cc1c(I)cc(I)c(N)c1I)C(=O)O (configuration not stated) : 0.999

====

Assay: chemical genetic growth profiling, strain panel (AID 1159580);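 further: tested at 20 µM; growth read once vehicle control cultures reached saturation at 30 °C; 1 = growth at the plate median or of vehicle wells; lower values mean less growth of the strain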
Settings: S. cerevisiae deletion strains, growth OD, locus YGR135W, strain pre9, hits give low values
Among all 5,500 compounds or so, about 2,000 (36%) were called active. Not shown: some 18% with an inconclusive outcome. Some of the results follow.
Listed next: entries and their corresponding normalized growth.
Please give the numeric answer without any surrounding text.

CC1(C)C(=O)C=CC2(C)C3CCC4(C)C(c5ccoc5)CC5OC54C3C(O)CC12 (configuration not stated) | 0.984
CNC[C@@H](O)c1ccc(O)c(O)c1 | 1.04
NCC(O)c1ccc(O)cc1 (configuration not stated) | 0.984
CN/C(=C\[N+](=O)[O-])NCCSCc1ccc(CN(C)C)o1 | 0.98

In the following, a different molecule is considered.
Sample CC(=O)OC1CC(OC(C)=O)C2(C)C(CC(OC(C)=O)C3(C)C2CCC2(C)C(c4ccoc4)CC4OC423)C1(C)C (configuration not stated) ; normalized growth observed: 1.04

====

Reported values of normalized growth for individual entries
Experiment: chemical genetic growth profiling, strain panel (AID 1159580);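 further: tested at 20 µM; growth read once vehicle control cultures reached saturation at 30 °C; 1 = growth at the plate median or of vehicle wells; lower values mean less growth of the strain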
Conditions: S. cerevisiae deletion strains, growth OD, locus YLR102C, strain apc9, hits give low values
In all, about 5,500 compounds went through this assay and about 2,000 (36%) were called active. Roughly 18% stayed inconclusive and do not appear here. This is one part of the list.
# output: bare number, no unit

Consider CCCC(C)C1(CC)C(=O)NC(=O)NC1=O (stereo not drawn) . Its measured normalized growth is 1.02

The recorded normalized growth for C=C(C)[C@H]1CC=C(C(=O)O)CC1 is 0.966

According to the records, this molecule CC(=O)NCCCCCC(=O)O displays normalized growth of 0.989

====

Assay: chemical genetic growth profiling, strain panel (AID 1159580);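 further: tested at 20 µM; growth read once vehicle control cultures reached saturation at 30 °C; 1 = growth at the plate median or of vehicle wells; lower values mean less growth of the strain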
Conditions: S. cerevisiae deletion strains, growth OD, locus YDL101C, strain DUN1
Out of some 5,500 compounds screened, about 2,000 (36%) were called active. Roughly 18% stayed inconclusive and do not appear here. No stated cut-off is given here; in the data, active means normalized growth mostly below about 0.91 (no sharp cut-off); inconclusive means no clear call, values can overlap the other calls; inactive means mostly above about 0.92. The list shows a part of the results.
In this exercise, the only acceptable responses are active, inactive

c1ccc2c3c([nH]c2c1)CNCC3 | inactive
O=[N+]([O-])c1cc(O)c(O)c([N+](=O)[O-])c1 | inactive
O=C(O)c1ccccc1Nc1cccc(C(F)(F)F)c1 | inactive
N#CCC(=O)NNC(=S)Nc1ccc(Cl)c(Cl)c1 | inactive
COC(=O)c1cc(OC)c(OC)cc1-n1c(C)ccc1C | inactive
C=C[C@@H](C1=CC(=O)C(OC)=C(OC)C1=O)c1ccccc1 | inactive

Status in this test for CN1CCCC12NCCc1c2[nH]c2ccccc12 (stereo not given) ?
inactive

Could you please tell me the result logged for O=C1CCCC2C3CC(CN12)[C@@H]1CCCCN1C3 (stereo not given in full) in this assay?
inactive

Which outcome was assigned to CN(C)CCOC(C)(c1ccccc1)c1ccccn1 (stereo not given) in this test?
inactive

I would be grateful if you could indicate the recorded call for CSCCC(NC=O)C(=O)NC(C)C(=O)O (stereo not given) .
inactive

Would you mind telling me which call this test gave Cc1oc(S(=O)(=O)N(C)C)cc1C(=O)O ?
inactive

What did this assay record as the result for c1ccc2c(c1)CCc1c-2[nH]c2ccccc12 ?
active

What classification did O=[N+]([O-])c1cc([As](=O)(O)O)ccc1O end up with in this test?
inactive

Give the logged outcome of this assay for the following molecule: O=[N+]([O-])c1ccccc1CS(=O)(=O)c1nc2ccccc2s1
active

# outcome recorded in this test, key = O=[N+]([O-])c1ccc(O)c([N+](=O)[O-])c1
active

Identify the outcome logged in this assay for the molecule shown: CSc1cc(-c2ccncc2)nc(-c2cccs2)c1
inactive

Per the records of this test, what outcome belongs to C=CC(C1=CC(=O)C(OC)=CC1=O)c1ccc(OC)cc1 (stereo not given) ?
inactive

# fetch the recorded call for CC(C)N(Cc1ccc(N(C)C)cc1)S(=O)(=O)c1cc(Cl)c(Cl)cc1Cl here
inactive

Tell me the recorded outcome of this test for CC(=O)Nc1cc([As](=O)(O)O)ccc1O .
inactive

Per the assay record, what outcome was assigned to COC(=O)c1cc([N+](=O)[O-])ccc1NC(C)=O ?
inactive

Given C1CCN2CC3CC(CN4CCCCC34)C2C1 (stereo not given) , state the outcome it received in this test.
inactive

Ref: PubChem BioAssay AID1159580
